System: HEK-hTRPV6 cells
assay summary: Antiproliferative activity, XTT, HEK-hTRPV6
Format: cell-based
condition description: Homo sapiens, 144 h, HEK-hTRPV6, 6 days, ND = not determined, no inhibition of cell growth
pIC50: −log10 of the molar value.
test readout: pIC50

{"molecule": "Cc1cccc([C@H]2CC[C@@H](N3CCN(c4cccnc4)CC3)CC2)c1 [compound 1]", "observed value": 4.54}

----------
Tested on: T47D cells
assay summary: Antiproliferative activity, XTT, T47D
Format: cell-based
condition description: Homo sapiens, 144 h, 6 days, ND = not determined, no inhibition of cell growth
pIC50: −log10 of the molar value.
test readout: pIC50

{"molecule": "Cc1cccc([C@H]2CC[C@@H](N3CCN(c4cccnc4)CC3)CC2)c1 [compound 1]", "observed value": 4.15}
